// data source = paper PMC4669722

Assay: Pharmacokinetics in BALB/c mice
Format: in vivo
Conditions: male, mouse, plasma, 1.0 mg/kg intravenous
Parameter Measured: half-life (min)

chemical_structure=O=C(c1ccccc1-c1ccccc1)N1CCc2c([nH]c3ccccc23)C1 unit_abbreviation=min reported_value=11.4

====

Biological target: Plk3 (Homo sapiens, UniProt Q9H4B4)
Sequence (Q9H4B4 whole entry): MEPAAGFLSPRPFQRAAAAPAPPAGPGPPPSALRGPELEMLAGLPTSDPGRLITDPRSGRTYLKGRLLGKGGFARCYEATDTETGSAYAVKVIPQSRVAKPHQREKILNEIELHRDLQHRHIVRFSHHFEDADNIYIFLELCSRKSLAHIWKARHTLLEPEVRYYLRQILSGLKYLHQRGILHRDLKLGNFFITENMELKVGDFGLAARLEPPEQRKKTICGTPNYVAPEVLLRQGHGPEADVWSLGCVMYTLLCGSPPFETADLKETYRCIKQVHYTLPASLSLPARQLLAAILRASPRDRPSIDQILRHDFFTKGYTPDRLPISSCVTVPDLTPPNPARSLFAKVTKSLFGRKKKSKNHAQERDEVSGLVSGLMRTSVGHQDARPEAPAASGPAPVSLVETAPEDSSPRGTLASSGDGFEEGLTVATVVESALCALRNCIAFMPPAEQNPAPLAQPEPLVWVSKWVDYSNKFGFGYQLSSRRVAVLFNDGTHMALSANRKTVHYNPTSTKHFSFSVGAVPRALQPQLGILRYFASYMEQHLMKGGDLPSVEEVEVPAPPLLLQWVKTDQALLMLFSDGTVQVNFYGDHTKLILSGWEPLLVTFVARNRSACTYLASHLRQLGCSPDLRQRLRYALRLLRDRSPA
Assay: Kinase profiling (Millipore), Plk3
Format: biochemical
Parameter Measured: IC50

chemical_structure=O=C(c1ccccc1-c1ccccc1)N1CCc2c([nH]c3ccccc23)C1 experimental_target="Plk3 (Homo sapiens, UniProt Q9H4B4)" parameter_measured=IC50 reported_value="> 10 µM"

====

Molecular target: PKA (Homo sapiens)
Parameter Measured: IC50

chemical_structure=O=C(c1ccccc1-c1ccccc1)N1CCc2c([nH]c3ccccc23)C1 parameter_measured=IC50 reported_value="> 10 µM"

====

Biological target: Cdk6-cyclin D1 (Homo sapiens, UniProt Q00534)
Sequence (P24385 whole entry): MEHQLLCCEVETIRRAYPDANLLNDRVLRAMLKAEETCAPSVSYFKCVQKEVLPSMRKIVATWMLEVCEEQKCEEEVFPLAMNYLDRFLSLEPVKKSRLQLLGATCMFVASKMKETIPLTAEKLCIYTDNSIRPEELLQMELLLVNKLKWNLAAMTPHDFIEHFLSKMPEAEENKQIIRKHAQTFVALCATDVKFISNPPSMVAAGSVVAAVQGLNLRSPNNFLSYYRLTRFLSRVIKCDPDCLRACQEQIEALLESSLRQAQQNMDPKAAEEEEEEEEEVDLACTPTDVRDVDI
Sequence (Q00534 whole entry): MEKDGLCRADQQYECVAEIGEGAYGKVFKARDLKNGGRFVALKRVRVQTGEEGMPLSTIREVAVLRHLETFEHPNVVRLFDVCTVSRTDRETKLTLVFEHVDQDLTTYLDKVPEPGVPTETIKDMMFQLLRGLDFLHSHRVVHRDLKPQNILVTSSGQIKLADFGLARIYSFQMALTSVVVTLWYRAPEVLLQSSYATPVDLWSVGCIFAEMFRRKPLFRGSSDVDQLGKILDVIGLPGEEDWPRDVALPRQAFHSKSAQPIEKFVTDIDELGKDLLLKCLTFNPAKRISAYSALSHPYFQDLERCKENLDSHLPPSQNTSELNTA
Assay: Kinase profiling (Millipore), Cdk6-cyclin D1
Parameter Measured: IC50

chemical_structure=O=C(c1ccccc1-c1ccccc1)N1CCc2c([nH]c3ccccc23)C1 experimental_target="Cdk6-cyclin D1 (Homo sapiens, UniProt Q00534)" parameter_measured=IC50 reported_value="> 10 µM"

====

pIC50 values for the compounds below.
System: A549 (NSCLC; p53+, pRb+)
Test: Cell proliferation (MTT) assay, A549
Assay type: cell-based
Conditions: Homo sapiens, 48 h, read-out: IC50 cell growth inhibition, A549
Protocol: All 10 human cancer cell lines were maintained at 37 °C in 5% CO2 in RPMI-1640 medium, supplemented with 10% foetal calf serum and 100 μg/ml normocin. […]
pIC50: −log10 of the molar value.
Parameter Measured: pIC50

compound="O=C1c2ccccc2-[n+]2ccc3c([nH]c4ccccc43)c21 [Fascaplysin, fascaplysin, reference compound]" parameter_measured=pIC50 reported_value=6.16
compound=COc1cccc(C(=O)N2CCc3c([nH]c4ccccc34)C2)c1 parameter_measured=pIC50 reported_value=5.10
compound=COc1ccccc1C(=O)N1CCc2c([nH]c3ccccc23)C1 parameter_measured=pIC50 reported_value=4.34
compound=CC(C)(C)c1ccc(C(=O)N2CCc3c([nH]c4ccccc34)C2)cc1 parameter_measured=pIC50 reported_value=4.51
compound=O=C(c1ccccc1-c1ccccc1)N1CCc2c([nH]c3ccccc23)C1 parameter_measured=pIC50 reported_value=6.04

====

Biological target: Cdk5-p35 (Homo sapiens, UniProt Q00535)
Sequence (Q00535 whole entry): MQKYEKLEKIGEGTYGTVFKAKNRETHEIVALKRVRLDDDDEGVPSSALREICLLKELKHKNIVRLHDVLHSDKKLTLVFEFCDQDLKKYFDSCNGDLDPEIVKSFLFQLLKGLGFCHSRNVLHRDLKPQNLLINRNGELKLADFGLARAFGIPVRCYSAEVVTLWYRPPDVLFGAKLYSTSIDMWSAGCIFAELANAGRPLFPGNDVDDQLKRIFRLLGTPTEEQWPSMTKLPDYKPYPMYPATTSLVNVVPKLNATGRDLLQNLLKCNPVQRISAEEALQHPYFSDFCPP
Sequence (Q15078 whole entry partner): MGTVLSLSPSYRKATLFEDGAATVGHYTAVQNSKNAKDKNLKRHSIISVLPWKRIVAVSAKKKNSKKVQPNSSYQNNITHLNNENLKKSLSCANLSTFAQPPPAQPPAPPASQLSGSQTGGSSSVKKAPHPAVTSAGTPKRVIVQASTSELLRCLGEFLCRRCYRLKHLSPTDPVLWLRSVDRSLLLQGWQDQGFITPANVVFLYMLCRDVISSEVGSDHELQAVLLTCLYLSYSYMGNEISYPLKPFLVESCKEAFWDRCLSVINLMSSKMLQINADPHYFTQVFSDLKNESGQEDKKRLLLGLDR
Parameter Measured: IC50

chemical_structure=O=C(c1ccccc1-c1ccccc1)N1CCc2c([nH]c3ccccc23)C1 experimental_target="Cdk5-p35 (Homo sapiens, UniProt Q00535)" reported_value="> 10 µM"

====

Biological target: GSK3β (Homo sapiens, UniProt P49841)
Sequence (P49841 whole entry): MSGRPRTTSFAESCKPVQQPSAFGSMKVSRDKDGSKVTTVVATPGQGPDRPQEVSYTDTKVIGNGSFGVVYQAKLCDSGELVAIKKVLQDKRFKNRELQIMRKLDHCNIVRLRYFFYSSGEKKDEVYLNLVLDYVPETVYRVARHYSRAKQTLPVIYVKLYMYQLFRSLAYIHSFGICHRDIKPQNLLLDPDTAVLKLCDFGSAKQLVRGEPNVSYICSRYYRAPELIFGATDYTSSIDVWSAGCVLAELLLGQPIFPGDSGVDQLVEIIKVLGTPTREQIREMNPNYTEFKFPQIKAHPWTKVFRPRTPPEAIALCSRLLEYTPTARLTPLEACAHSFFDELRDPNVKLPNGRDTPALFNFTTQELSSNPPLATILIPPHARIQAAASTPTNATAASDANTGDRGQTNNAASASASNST
pIC50: −log10 of the molar value.
Parameter Measured: pIC50

chemical_structure=O=C(c1ccccc1-c1ccccc1)N1CCc2c([nH]c3ccccc23)C1 parameter_measured=pIC50 reported_value="< 5.00"

====

Biological target: PDGFR
Experiment: Kinase profiling (Millipore), PDGFR
Parameter Measured: IC50

chemical_structure=O=C(c1ccccc1-c1ccccc1)N1CCc2c([nH]c3ccccc23)C1 reported_value="> 10 µM"

====

Target: Cdk7-cyclin H (Homo sapiens, UniProt P50613)
Sequence (P50613 whole entry): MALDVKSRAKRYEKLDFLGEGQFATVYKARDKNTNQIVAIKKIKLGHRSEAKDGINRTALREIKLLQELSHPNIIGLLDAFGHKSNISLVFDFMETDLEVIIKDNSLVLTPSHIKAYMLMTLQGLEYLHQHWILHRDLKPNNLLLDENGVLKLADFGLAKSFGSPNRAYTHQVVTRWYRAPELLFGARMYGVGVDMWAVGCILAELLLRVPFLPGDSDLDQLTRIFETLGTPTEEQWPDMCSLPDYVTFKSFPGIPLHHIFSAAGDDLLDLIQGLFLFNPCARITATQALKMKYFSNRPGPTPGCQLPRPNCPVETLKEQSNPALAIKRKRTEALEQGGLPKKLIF
Sequence (P51946 whole entry partner): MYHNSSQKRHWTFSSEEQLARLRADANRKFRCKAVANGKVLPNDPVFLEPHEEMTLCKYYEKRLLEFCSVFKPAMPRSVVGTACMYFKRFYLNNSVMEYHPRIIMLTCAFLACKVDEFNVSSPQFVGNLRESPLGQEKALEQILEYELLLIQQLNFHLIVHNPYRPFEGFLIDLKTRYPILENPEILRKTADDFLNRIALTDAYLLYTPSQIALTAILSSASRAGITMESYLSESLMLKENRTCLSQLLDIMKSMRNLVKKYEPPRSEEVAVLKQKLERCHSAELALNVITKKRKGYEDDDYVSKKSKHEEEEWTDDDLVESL
Sequence (P51948 whole entry partner): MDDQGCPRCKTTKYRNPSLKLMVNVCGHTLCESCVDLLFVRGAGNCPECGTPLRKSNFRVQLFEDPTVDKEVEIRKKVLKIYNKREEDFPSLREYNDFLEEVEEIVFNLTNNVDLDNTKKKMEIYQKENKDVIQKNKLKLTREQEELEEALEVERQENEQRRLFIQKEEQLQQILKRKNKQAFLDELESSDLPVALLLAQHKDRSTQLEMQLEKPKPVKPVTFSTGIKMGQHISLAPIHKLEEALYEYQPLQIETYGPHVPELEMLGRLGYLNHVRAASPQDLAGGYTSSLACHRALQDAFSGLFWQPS
Experiment: Kinase profiling (Millipore), Cdk7-cyclin H
Assay type: biochemical
Parameter Measured: IC50

chemical_structure=O=C(c1ccccc1-c1ccccc1)N1CCc2c([nH]c3ccccc23)C1 experimental_target="Cdk7-cyclin H (Homo sapiens, UniProt P50613)" reported_value="> 10 µM"
